Collected melting point values appear next to each entry.

Worked cases, answers included:
- Molecule: "CC(C)=CCCC(C)C1CCC2C3=CC=C4CC(O)CCC4(C)C3CCC21C (stereo not given)"
  Value Kind: "melting point"
  Val: "114 to 117 °C"
- Molecule: "O=C(NCc1ccccn1)c1nc(-c2ccccc2)c(-c2ccc(=O)n(Cc3ccccc3)n2)s1"
  Value Kind: "melting point"
  Val: "172 to 174 °C"
- Molecule: "Fc1cc(-c2ccno2)c(Cl)cc1Cl"
  Value Kind: "melting point"
  Val: "112 to 113 °C"
- Molecule: "NC(=O)c1ccc(F)c2c1CC(NCCCc1c[nH]c3c(Cl)cccc13)CO2 (stereo not given)"
  Value Kind: "melting point"
  Val: "222 to 224 °C"
- Molecule: "CCOC(=O)c1snc(CO)c1N"
  Value Kind: "melting point"
  Val: "82 to 85 °C"

Now consider a different molecule.
// melting point lookup, molecule = C=CCc1cc(-c2csc(-c3ccc(OCC)c(OCC)c3)n2)cc(C(=O)OC)c1O , result: 118 to 119 °C

----------
Value Kind: melting point

Worked cases, answers included:
- Compound: "COc1cc(Cc2nc(NCC(C)C)c3c(C)c(C#N)sc3n2)cc(OC)c1OC"
  Value Kind: "melting point"
  Val: "129 to 131 °C"
- Compound: "N#Cc1cn(-c2ccc(Cl)c(Cl)c2)c(=O)[nH]c1=O"
  Value Kind: "melting point"
  Val: "206 to 208 °C"
- Compound: "CN(C)C(C)(CO)c1cccs1 (configuration not stated)"
  Value Kind: "melting point"
  Val: "68 to 70 °C"
- Compound: "CCC[C@H]1CC[C@H](CCc2ccc(-c3ccc(C#N)cc3F)cc2)CC1"
  Value Kind: "melting point"
  Val: "89.4 °C"
- Compound: "CC1=CC(c2ccc(C(F)(F)F)cc2)C2=C(CCCC2=O)N1 (configuration not stated)"
  Value Kind: "melting point"
  Val: "116 to 118 °C"

// melting point lookup, compound = CC(=O)N1CCN(CC(=O)OC2c3ccccc3C(=O)N2c2ccc3ccc(Cl)nc3n2)CC1 (configuration not stated) , result: 192 °C

// melting point lookup, compound = O=c1c2c(O)c(O)ccc2c2cc(O)c(O)cc2n1Cc1ccc([N+](=O)[O-])cc1 , result: 258 to 263 °C

----------
Collected melting point values appear next to each entry.

Worked cases, answers included:
- Molecule: "NC(=O)c1sc2nccc(NCCCc3ccccc3)c2c1N"
  melting point: "232 to 234 °C"
- Molecule: "O=C1C(=CO)CC[C@H]2C(=O)C(=CO)CC[C@H]12"
  melting point: "155 to 157 °C"
- Molecule: "Cc1ccccc1C(=O)Nc1ccc(C(=O)N2CCCC(C)(O)c3ccccc32)cc1 (stereo not given)"
  melting point: "204 to 205 °C"

// melting point lookup, molecule = NC(=O)C(Nc1ncccc1[N+](=O)[O-])c1c(Cl)cccc1Cl (stereo not given) , result: 207 °C

// melting point lookup, molecule = O=C(O)c1ccc2[nH]cc(CCCCN3CC=C(c4ccccc4)CC3)c2c1 , result: 284 to 285 °C

// melting point lookup, molecule = O=C(Nc1ccccc1)Nc1cc(F)ccc1C(=O)O , result: 163 to 166 °C

// melting point lookup, molecule = CCCCCCCC(O)C1(C)OC(C)=C(O)C1=O (stereo not given) , result: 97 to 98 °C

// melting point lookup, molecule = CC(C)(C)c1cc(NC(=O)C2CCCCC2C(=O)O)cc(C(C)(C)C)c1O (stereo not given) , result: 247 to 252 °C

// melting point lookup, molecule = CN(C)C=C(SCCN1C(=O)c2ccccc2C1=O)C(=O)c1ccc(F)cc1 , result: 108 to 111 °C

// melting point lookup, molecule = NC(=O)c1c(F)ccc(OCc2cc3cc(C(F)(F)F)ccc3s2)c1F , result: 150 to 152 °C

// melting point lookup, molecule = N[C@H](Cc1ccc(C(F)(F)F)cc1)[C@@H](O)c1cccc(Cl)n1 (racemic) , result: 89 to 90 °C

// melting point lookup, molecule = c1ccc(C2=NNC(c3ccccc3)C2)cc1 (stereo not given) , result: 194 to 199 °C

// melting point lookup, molecule = CCCCCCCCCCCCCCCCOC(=O)c1ccc(Cl)c(Nc2cc(=O)n(-c3c(Cl)cc(Cl)cc3Cl)n2C(=O)OCc2ccccc2)c1 , result: 128 to 131 °C

// melting point lookup, molecule = Nc1cnc(-c2ccc(Br)cc2)c(Cl)n1 , result: 254 to 256 °C

// melting point lookup, molecule = CCn1cnc2c(Nc3cccc(C(=O)O)c3)nc(N[C@H]3CC[C@H](O)CC3)nc21 , result: 317 °C

----------
Collected melting point values appear next to each entry.

Worked cases, answers included:
- Compound: "CC(C)(C)OC(=O)C(Nc1ccccc1)c1ccccc1Cl (racemic)"
  melting point: "74 °C"
- Compound: "CCCc1c(OCCCC#CCO)ccc(C(C)=O)c1O"
  melting point: "88 to 90 °C"
- Compound: "NS(=O)(=O)c1ccc(-c2cc(-c3nc(-c4ccc(F)cc4)cc(C(F)(F)F)n3)ccn2)s1"
  melting point: "282 °C"
- Compound: "Cc1cc2c(cc1-c1ccc(C=CC(=O)O)s1)C(C)(C)CCC2(C)C"
  melting point: "175 to 177 °C"
- Compound: "O=C(Nc1cccc(Cl)c1)C1=Cc2ccccc2S1=O (stereo not given)"
  melting point: "257 to 258 °C"

// melting point lookup, compound = COc1cccc(C=CC(=O)C2=C(O)C(=C(C)Nc3ccccc3N)C(=O)OC2=O)c1OC , result: 212 to 215 °C

// melting point lookup, compound = Cc1nc(NC(=O)c2cccc3ccccc23)sc1C(=O)NCc1ccccc1 , result: 99 to 101 °C

// melting point lookup, compound = COc1nc2ccccc2nc1NC(=S)N1CCN(c2ccc(C(C)=O)cc2)CC1 , result: 235 to 237 °C

// melting point lookup, compound = CCOc1nc2c(N)nc(OCCc3ccccc3)nc2n1CC , result: 161 to 164 °C

// melting point lookup, compound = Cn1nnc(N(Cc2ccccc2)C(=O)C2CCCC2)n1 , result: 54 °C

// melting point lookup, compound = CSCc1ccc(NC(=O)/C=C/c2cnn(C)c2-c2ccc(F)cc2)cc1 , result: 165 to 168 °C

// melting point lookup, compound = Cc1ccc(-c2ccccc2-c2n[nH]c(=O)n2C)cc1 , result: 181 to 182 °C

// melting point lookup, compound = CCn1c(=O)n(OCc2ccccc2)c(=O)c2cc(F)c(N3CCCC3)nc21 , result: 189 to 190 °C

// melting point lookup, compound = O=C(O)C(=O)N1CCC(Oc2ccc(F)cc2)CC1 , result: 147 to 149 °C

----------
Collected melting point values appear next to each entry.

Worked cases, answers included:
- Compound: "CCn1cc(CCC(=O)O)c2ccccc21"
  melting point: "50 °C"
- Compound: "COc1ccc([N+](=O)[O-])c(/C=C/c2cc(/C=C/c3ccc4cc[nH]c4c3)n[nH]2)c1"
  melting point: "104 to 109 °C"

Now consider a different compound.
// melting point lookup, compound = CCC12C=C(C(=O)OC)n3c4c(c5ccccc53)CCN(CCC1)C42 (stereo unspecified) , result: 160 to 162 °C

----------
Collected melting point values appear next to each entry.

Worked cases, answers included:
- Compound: "CCCn1cc(-c2nc(C(N)=O)c(N)nc2-c2ccccc2)ccc1=O"
  Value Kind: "melting point"
  Val: "> 250 °C"
- Compound: "O=C(NCCc1ccccc1)Nc1ccc(CN2C(=O)[C@H]3CCC[C@H]3N(C(=O)CN3C(=O)c4ccccc4C3=O)c3ccccc32)cc1 (relative stereo)"
  Value Kind: "melting point"
  Val: "145 to 147 °C"
- Compound: "CC(C)C1(C)NC(c2ncccc2C#N)=NC1=O (stereo not given)"
  Value Kind: "melting point"
  Val: "144 to 148 °C"
- Compound: "Clc1cccc2c(CN3CC=C(c4ccc5[nH]ccc5c4)CC3)n[nH]c12"
  Value Kind: "melting point"
  Val: "164 to 167 °C"
- Compound: "CCC(=O)NC1=NN(c2ccc(F)cc2)C(C)C1 (stereo not given)"
  Value Kind: "melting point"
  Val: "125 to 126 °C"
- Compound: "CCNC(=O)NNC(=O)c1ccc(Cl)cc1"
  Value Kind: "melting point"
  Val: "237 to 239 °C"
- Compound: "CC(=O)Oc1ccccc1C1SC[C@@H](C(=O)O)N1C(=O)CCSC(=O)c1ccc(C)cc1 (stereo not given in full)"
  Value Kind: "melting point"
  Val: "93 to 96 °C"
- Compound: "CC(C)[Si](Oc1ccc2c(c1)OCC(N1CCC(O)(c3ccccc3)CC1)C2=O)(C(C)C)C(C)C (stereo not given)"
  Value Kind: "melting point"
  Val: "132 °C"

// melting point lookup, compound = CC(C)(C)OC(=O)NC1C(=O)N(OCc2ccccc2)C12CCOCC2 (stereo not given) , result: 144 to 146 °C

// melting point lookup, compound = COC(=O)C(=O)c1ccccc1Nc1c(Cl)cccc1Cl , result: 124 to 126 °C

// melting point lookup, compound = COc1ccc(F)c2c1OC(CN1CC(C)(C)Cn3c1nc(-c1ccncn1)cc3=O)CC2 (racemic) , result: 136 to 138 °C

// melting point lookup, compound = Clc1ccccc1-c1nc2occn2c1-c1ccnc(N[C@H]2CN3CCC2CC3)n1 , result: 132 to 134 °C

// melting point lookup, compound = CC(C)(C)OC(=O)N1CC=C(c2cnc(COc3ccc(S(C)(=O)=O)cc3)cc2Cl)CC1 , result: 148 to 150 °C

// melting point lookup, compound = OCC1=NOC(c2ccccc2)C1 (stereo not given) , result: 73 to 74 °C

// melting point lookup, compound = NC(=O)COc1ccccc1C(=O)Nc1ccc(C(=O)N2CCCC(=O)c3ccccc32)cc1 , result: 226 to 228 °C

// melting point lookup, compound = CCCCCCCN(CC1(c2ccccc2)CCCC1)C(=O)Nc1c(C(C)C)cccc1C(C)C , result: 95 to 97 °C

// melting point lookup, compound = CC(C)c1cccc(CCCn2ccnc2)c1NC(=O)CC1c2ccccc2Oc2ccccc21 , result: 194 to 195 °C

// melting point lookup, compound = COCCc1ncc(CO)c(NCc2ccc(-c3ccccc3-c3nnnn3C(c3ccccc3)(c3ccccc3)c3ccccc3)cc2)n1 , result: 118 to 120 °C
